Values compiled from patent US20030186334A1.

# assayed system: αvβ3 integrin (Homo sapiens, UniProt P05106+P06756)
# Construct: endogenous in cells; host or cells: JY cells
# Sequence (P06756 31-889 limits assumed): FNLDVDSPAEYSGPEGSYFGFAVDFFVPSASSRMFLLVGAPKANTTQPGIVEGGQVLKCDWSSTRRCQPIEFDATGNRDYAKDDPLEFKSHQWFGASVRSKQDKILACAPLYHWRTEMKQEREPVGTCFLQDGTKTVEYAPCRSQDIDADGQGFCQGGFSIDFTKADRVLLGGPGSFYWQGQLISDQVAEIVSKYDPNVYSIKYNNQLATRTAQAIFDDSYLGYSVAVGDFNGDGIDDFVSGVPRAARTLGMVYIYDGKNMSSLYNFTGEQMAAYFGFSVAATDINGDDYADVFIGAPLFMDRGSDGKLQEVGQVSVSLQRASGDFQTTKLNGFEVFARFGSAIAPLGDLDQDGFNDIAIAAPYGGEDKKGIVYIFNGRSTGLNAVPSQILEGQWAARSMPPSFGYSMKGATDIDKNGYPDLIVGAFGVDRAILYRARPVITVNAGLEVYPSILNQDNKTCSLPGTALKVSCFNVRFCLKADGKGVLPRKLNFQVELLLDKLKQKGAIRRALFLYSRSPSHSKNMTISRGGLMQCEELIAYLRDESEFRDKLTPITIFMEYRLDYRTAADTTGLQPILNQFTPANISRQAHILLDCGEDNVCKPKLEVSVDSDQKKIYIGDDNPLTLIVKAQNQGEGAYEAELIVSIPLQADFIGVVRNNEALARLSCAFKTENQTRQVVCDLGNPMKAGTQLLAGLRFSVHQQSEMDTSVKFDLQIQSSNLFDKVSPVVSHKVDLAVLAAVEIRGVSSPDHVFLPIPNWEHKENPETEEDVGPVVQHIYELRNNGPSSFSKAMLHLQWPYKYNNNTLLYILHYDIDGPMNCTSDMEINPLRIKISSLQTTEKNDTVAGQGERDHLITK
# Sequence (P06756 891-1048 partner limits assumed): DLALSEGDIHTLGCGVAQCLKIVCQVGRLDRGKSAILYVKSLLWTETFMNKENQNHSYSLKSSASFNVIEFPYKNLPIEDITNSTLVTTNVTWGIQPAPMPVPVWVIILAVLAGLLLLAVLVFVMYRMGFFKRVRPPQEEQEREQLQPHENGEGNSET
# Sequence (P05106 27-788): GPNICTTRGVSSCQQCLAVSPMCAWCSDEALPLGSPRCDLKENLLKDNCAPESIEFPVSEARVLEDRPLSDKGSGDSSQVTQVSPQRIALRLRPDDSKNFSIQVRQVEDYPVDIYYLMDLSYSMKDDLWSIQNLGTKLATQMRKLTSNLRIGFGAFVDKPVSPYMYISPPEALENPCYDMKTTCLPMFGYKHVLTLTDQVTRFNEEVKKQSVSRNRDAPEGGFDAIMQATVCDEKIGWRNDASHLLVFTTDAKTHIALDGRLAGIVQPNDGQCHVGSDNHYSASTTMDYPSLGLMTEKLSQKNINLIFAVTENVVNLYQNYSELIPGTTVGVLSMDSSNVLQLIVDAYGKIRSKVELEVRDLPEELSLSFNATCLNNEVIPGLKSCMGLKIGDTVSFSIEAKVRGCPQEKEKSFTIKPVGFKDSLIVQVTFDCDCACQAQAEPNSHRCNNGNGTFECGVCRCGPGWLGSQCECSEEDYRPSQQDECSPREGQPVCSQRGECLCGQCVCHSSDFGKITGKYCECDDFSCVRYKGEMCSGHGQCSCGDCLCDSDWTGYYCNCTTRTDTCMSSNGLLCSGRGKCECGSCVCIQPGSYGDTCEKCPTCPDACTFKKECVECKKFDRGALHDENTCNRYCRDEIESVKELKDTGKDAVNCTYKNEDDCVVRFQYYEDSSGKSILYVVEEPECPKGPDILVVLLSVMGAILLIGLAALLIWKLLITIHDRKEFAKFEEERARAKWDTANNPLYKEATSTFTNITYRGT
# assay method text: adhesion of JY cells to vitronectin
# Type: cell-based
# experimental parameters: αvβ3, VN
Below is a list of entries, each paired with its recorded IC50 value.
Answer with a number only, understood to be in nM.

substance	IC50 / nM
Echistatin: short RGD-containing disintegrin (QCESGPCCRNCKFLKEGTICKRARGDDMDDYCNGKTCDCPRNPHKGPAT) [reference compound]	0.1

Here is the next item to consider.
Data request, read-out IC50, for Eristostatin: short disintegrin compared with obtustatin (QEEPCATGPCCRRCKFKRAGKVCRVARGDWNDDYCTGKSCDCPKNPWNG) [reference compound]
2000

* * *

# assayed system: α1β1 integrin (Homo sapiens, UniProt P05556+P56199)
# Construct: expressed in transfected cells; host or cells: α1K562 cells
# Sequence (P56199 29-1179): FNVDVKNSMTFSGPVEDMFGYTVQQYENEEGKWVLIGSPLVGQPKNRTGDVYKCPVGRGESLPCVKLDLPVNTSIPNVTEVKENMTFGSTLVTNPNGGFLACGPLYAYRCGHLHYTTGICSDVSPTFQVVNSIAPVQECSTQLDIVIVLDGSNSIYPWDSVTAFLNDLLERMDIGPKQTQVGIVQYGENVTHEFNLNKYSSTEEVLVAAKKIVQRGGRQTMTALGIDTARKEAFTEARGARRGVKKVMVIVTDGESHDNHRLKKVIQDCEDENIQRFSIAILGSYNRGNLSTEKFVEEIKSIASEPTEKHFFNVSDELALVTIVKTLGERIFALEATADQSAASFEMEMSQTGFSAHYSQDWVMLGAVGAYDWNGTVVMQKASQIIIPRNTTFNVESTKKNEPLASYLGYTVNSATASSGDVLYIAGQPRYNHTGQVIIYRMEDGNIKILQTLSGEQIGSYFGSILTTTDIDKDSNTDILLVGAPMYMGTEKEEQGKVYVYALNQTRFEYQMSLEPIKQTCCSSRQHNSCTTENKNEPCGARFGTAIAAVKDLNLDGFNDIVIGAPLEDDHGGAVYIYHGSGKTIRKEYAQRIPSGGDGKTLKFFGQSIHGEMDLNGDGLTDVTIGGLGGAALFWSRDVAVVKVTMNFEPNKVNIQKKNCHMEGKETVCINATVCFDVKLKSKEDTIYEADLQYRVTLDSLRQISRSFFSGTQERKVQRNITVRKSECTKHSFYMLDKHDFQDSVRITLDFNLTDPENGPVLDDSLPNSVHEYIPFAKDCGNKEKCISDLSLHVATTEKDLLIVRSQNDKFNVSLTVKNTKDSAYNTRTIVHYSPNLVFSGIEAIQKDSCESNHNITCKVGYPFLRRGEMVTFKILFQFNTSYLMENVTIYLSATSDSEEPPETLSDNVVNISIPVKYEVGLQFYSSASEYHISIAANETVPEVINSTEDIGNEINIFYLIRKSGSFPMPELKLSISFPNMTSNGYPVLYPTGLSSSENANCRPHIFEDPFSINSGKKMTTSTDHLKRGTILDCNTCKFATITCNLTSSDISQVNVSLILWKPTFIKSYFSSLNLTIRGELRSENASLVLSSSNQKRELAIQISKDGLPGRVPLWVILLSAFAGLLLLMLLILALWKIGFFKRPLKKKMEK
# Sequence (P05556 21-798): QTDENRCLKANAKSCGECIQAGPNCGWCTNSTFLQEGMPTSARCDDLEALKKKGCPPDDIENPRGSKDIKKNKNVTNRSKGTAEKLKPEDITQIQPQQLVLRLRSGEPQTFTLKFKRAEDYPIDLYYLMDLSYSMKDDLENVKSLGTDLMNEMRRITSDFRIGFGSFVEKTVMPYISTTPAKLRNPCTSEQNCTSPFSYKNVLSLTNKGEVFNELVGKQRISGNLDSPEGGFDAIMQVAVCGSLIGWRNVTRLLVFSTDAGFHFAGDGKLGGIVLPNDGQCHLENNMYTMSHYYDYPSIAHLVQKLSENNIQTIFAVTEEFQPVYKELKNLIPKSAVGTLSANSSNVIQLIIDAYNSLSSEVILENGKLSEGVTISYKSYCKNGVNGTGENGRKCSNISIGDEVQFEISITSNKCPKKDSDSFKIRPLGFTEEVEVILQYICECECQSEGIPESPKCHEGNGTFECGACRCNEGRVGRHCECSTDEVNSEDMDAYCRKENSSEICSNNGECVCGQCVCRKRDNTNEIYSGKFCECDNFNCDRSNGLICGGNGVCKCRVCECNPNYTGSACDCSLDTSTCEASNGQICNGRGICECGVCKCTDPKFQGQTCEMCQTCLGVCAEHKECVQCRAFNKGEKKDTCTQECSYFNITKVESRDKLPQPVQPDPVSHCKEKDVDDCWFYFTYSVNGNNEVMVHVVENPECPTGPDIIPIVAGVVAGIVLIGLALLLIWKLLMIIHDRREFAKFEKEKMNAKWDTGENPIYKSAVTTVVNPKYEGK
# assay method text: adhesion of HS.939T cells to collagen IV
# Type: cell-based
# experimental parameters: α1β1, Coll IV
Below is a list of entries, each paired with its recorded pIC50 value.
Expect pIC50 as a plain number equal to -log10 of the molar concentration.

substance	measurement type	experimental value
Obtustatin (CTTGPCCRQCKLKPAGTTCWKTSLTSHYCTGKSCDCPLYPG)	pIC50	10.00

Here is the next item to consider.
Data request, read-out pIC50, for Viperisrastatin (CTTGPCCRQCKLKPAGTTCWKTSRTSHYCTGKSCDCPVYQG)
11.70

* * *

# assayed system: α1β1 integrin (Homo sapiens, UniProt P05556+P56199)
# Construct: expressed in transfected cells; host or cells: α1K562 cells
# assay method text: adhesion of α1K562 cells to immobilized collagen IV
# Format: cell-based
# experimental parameters: α1K562 cells, α1β1, collagen IV
measurement type: IC50 (nM)
Answer with a number only, understood to be in nM.

substance	experimental value
Viperisrastatin (CTTGPCCRQCKLKPAGTTCWKTSRTSHYCTGKSCDCPVYQG)	0.08

Here is the next item to consider.
Data request, read-out IC50, for Obtustatin (CTTGPCCRQCKLKPAGTTCWKTSLTSHYCTGKSCDCPLYPG)
2

* * *

# assayed system: α5β1 integrin (Homo sapiens, UniProt P05556+P08648)
# Construct: endogenous in cells; host or cells: K562 cells
# Sequence (P08648 42-894 limits assumed): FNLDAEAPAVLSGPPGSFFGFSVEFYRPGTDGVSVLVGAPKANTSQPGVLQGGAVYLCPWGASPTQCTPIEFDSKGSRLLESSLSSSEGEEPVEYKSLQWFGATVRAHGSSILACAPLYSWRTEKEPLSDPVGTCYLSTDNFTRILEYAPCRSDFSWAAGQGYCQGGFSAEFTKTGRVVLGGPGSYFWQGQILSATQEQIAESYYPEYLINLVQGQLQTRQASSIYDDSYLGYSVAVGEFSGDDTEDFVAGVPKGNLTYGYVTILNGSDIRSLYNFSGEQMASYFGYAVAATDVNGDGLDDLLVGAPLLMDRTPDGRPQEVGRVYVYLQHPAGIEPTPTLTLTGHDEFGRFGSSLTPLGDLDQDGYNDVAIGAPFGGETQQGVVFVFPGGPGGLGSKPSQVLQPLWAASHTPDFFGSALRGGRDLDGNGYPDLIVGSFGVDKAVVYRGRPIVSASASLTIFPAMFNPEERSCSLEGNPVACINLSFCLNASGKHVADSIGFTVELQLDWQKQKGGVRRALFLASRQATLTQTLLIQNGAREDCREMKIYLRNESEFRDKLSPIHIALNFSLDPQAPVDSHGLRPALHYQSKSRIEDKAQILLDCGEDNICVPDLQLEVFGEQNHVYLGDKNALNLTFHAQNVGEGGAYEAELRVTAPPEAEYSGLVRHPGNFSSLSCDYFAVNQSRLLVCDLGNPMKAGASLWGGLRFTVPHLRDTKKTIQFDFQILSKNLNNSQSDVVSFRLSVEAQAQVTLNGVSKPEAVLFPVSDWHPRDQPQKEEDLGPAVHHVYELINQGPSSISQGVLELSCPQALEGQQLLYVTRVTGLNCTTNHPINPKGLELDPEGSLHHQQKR
# Sequence (P08648 895-1049 partner limits assumed): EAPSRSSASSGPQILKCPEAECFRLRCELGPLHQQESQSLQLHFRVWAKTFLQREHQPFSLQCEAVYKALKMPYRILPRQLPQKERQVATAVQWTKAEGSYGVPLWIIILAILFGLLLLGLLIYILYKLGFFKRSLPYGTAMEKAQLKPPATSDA
# Sequence (P05556 21-798): as the sequence (P05556 21-798) above
# assay method text: adhesion of K562 cells to fibronectin
# Assay type: cell-based
pIC50: −log10 of the molar value.
Below is a list of entries, each paired with its recorded pIC50 value.

Give the reported pIC50 for Obtustatin (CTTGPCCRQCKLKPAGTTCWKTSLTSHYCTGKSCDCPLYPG) (system: α5β1 integrin (Homo sapiens, UniProt P05556+P08648)).
< 5.00

Give the reported pIC50 for Echistatin: short RGD-containing disintegrin (QCESGPCCRNCKFLKEGTICKRARGDDMDDYCNGKTCDCPRNPHKGPAT) [reference compound] (system: α5β1 integrin (Homo sapiens, UniProt P05556+P08648)).
7.30

Give the reported pIC50 for Eristostatin: short disintegrin compared with obtustatin (QEEPCATGPCCRRCKFKRAGKVCRVARGDWNDDYCTGKSCDCPKNPWNG) [reference compound] (system: α5β1 integrin (Homo sapiens, UniProt P05556+P08648)).
< 5.00

Give the reported pIC50 for Viperisrastatin (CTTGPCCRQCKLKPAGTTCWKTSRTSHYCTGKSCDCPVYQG) (system: α5β1 integrin (Homo sapiens, UniProt P05556+P08648)).
< 5.00
